Please respond with reported half-life at 2 μM for every item in the list.
assay.info: Liver microsomes stability, rat
applied.conditions: male, rat, rat liver microsomes

{"columns": ["cpd.smiles", "half-life at 2 μM"],
 "data": [
  ["CN1CCC[C@@H]1Cc1c[nH]c2cccc(OC(=O)CCCC(=O)Oc3cccc4[nH]cc(C[C@H]5CCCN5C)c34)c12", "< 4.51 min"]
]}

Now, please, on to the next molecule.
Tell me the measured half-life at 2 μM of `[2H]C([2H])(c1c[nH]c2cccc(OC(=O)CCCC(=O)Oc3cccc4[nH]cc(C([2H])([2H])[C@H]5CCCN5C([2H])([2H])[2H])c34)c12)[C@H]1CCCN1C([2H])([2H])[2H]` , please.
< 4.51 min

* * *

assay.info: Liver microsomes stability, mouse
applied.conditions: male, mouse, mouse liver microsomes
Please respond with reported microsomal CLint at 2 μM for every item in the list.

{"columns": ["cpd.smiles", "microsomal CLint at 2 μM"],
 "data": [
  ["CN1CCC[C@@H]1Cc1c[nH]c2cccc(OC(=O)CCCC(=O)Oc3cccc4[nH]cc(C[C@H]5CCCN5C)c34)c12", "> 307 µL/min/mg"]
]}

Now, please, on to the next compound.
Tell me the measured microsomal CLint at 2 μM of `[2H]C([2H])(c1c[nH]c2cccc(OC(=O)CCCC(=O)Oc3cccc4[nH]cc(C([2H])([2H])[C@H]5CCCN5C([2H])([2H])[2H])c34)c12)[C@H]1CCCN1C([2H])([2H])[2H]` , please.
> 307 µL/min/mg

* * *

Please respond with reported Papp A→B at 2 h, 5 µM for every item in the list.
assay.info: Intestinal mucosal permeation using Caco-2 cell monolayers
applied.conditions: human, Caco-2, pH 7.4

Quick one: give me Papp A→B at 2 h, 5 µM for each item below, same order please.
1. COc1cc2nc(N3CCN(C(=O)c4ccco4)CC3)nc(N)c2cc1OC [Prazosin]
2. [2H]C([2H])(c1c[nH]c2cccc(OC(=O)CCCC(=O)Oc3cccc4[nH]cc(C([2H])([2H])[C@H]5CCCN5C([2H])([2H])[2H])c34)c12)[C@H]1CCCN1C([2H])([2H])[2H] [Compound I-22]

1. 10.1 ×10⁻⁶ cm/s
2. < 0.25 ×10⁻⁶ cm/s

Quick one: give me Papp A→B at 2 h, 5 µM for each item below, same order please.
1. C[C@H]1O[C@@H](O[C@H]2[C@@H](O)C[C@H](O[C@H]3[C@@H](O)C[C@H](O[C@H]4CC[C@@]5(C)[C@H](CC[C@@H]6[C@@H]5C[C@@H](O)[C@]5(C)[C@@H](C7=CC(=O)OC7)CC[C@]65O)C4)O[C@@H]3C)O[C@@H]2C)C[C@H](O)[C@@H]1O [Digoxin]
2. CN1CCC[C@@H]1Cc1c[nH]c2cccc(OC(=O)CCCC(=O)Oc3cccc4[nH]cc(C[C@H]5CCCN5C)c34)c12 [Compound I-13]
3. CN(C)CCc1c[nH]c2cccc(OP(=O)(O)O)c12 [Psilocybin, 4-phosphoryloxy-N,N-dimethyltrypatmine]

1. 0.53 ×10⁻⁶ cm/s
2. 0.63 ×10⁻⁶ cm/s
3. 0.06 ×10⁻⁶ cm/s

Quick one: give me Papp A→B at 2 h, 5 µM for each item below, same order please.
1. CN1CCC[C@@H]1Cc1c[nH]c2cccc(O)c12 [Compound 10]
2. CN(C)CCc1c[nH]c2cccc(O)c12 [Psilocin, 4-hydroxy-N,N-dimethyltryptamine, reference compound]
3. CC(C)NCC(O)COc1cccc2ccccc12 (centres unmarked) [Propranolol]

1: 23.2 ×10⁻⁶ cm/s; 2: 24.6 ×10⁻⁶ cm/s; 3: 33.5 ×10⁻⁶ cm/s
